Target: T1, Fc
T1 construct: domain: Fc
Assay: phage ELISA, Fc coated
Please mark Y if the recorded OD490 is equal to or greater than 0.05 OD, and N if it falls below.

Below, 3 binders whose answers are already recorded.
{"binder": "ACVR2B A06 (monoclonal scFv-phage) (scFv, V domains shown, also called A6) VH: VQLVQSGGGLVQPGRSLRLSCTASGFTFGDYAMSWVRQAPGKGLEWVGFIRSKRYDGTAEYAASVKGRFTISRDDSKNSLYLQMNSLRAEDTAVYYCARGHYAMDVWGQGTTVTVSS VL: DIQMTQSPSSLSASVGDRVTITCRASRSISNYLNWYQQKPGKAPKLLIYAASSLQSGVPSRFSGSGSGTDFTLTISSLQPEDFATYYCQQSYDTPFTFGLGNQLEIK", "cat": "N"}
{"binder": "ACVR2B A09 (monoclonal scFv-phage) (scFv, V domains shown, also called A9) VH: VQLVESGGGLVQPGRSLRLSCAASGFTFDSYWMSWVRQAPGKGLEWVANIKYDGSEKHYMDSVKGRFTISRDNAKNSVYLQMNSLRAEDTAVYYCAKGAWLDYWGQGTQVTVSS VL: IQMTQSPSAMSASVGDRVTITCRASQGISNYLAWFQQKPGKVPKRLIYAASSLQSGVPSRFSGSGSGTGFTLTITSLQPEDFATYYCLQHKSYPYTFGQGTKLEIK", "cat": "N"}
{"binder": "ACVR2B B08 (monoclonal scFv-phage) (scFv, V domains shown, also called B8) VH: VQLVQSGGGLVHPGQSLRLSCTGSGFPFGDYSMTWVRQAPGKGLEWVGLVRSKAYGGTTEYAASVKGRFIMSRDDSRSIAYLQMNSLRAEDTAVYYCARGHYGMDVWGQGTTVTVSS VL: DIQMTQSPSSVSASVGDRVTITCRASQGISNWLAWYQQKPGKAPKLLIYAASSLQSGVPSRFSGSGSGTDFTLTISSLQPEDFATYYCQQAKSYPYTFGQGTKVEIK", "cat": "N"}

Threshold query (OD490 >= 0.05 OD) on ACVR2B F08 (monoclonal scFv-phage) (scFv, V domains shown, also called F8) VH: VQLVESGGGLVQPGGSLRLSCAASGFTFSDHYMDWVRQAPGKGLEWVGRTRNKANSYTTEYAASVKGRFTISRDDSKNSLYLQMNSLRAEDTAVYYCTKGAWLDYWGQGTLVTVSS VL: IQMTQSPSAMSASVGDRVTITCRASQGISNYLAWFQQKPGKVPKRLIYGASSLQGGVPSRFSGSGSGTEFTLTITSLQPEDFATYFCLQHKSYPLTFGPGTKVEIK
Y

Reported OD490 reaches at least 0.05 OD for ACVR2B B12 (monoclonal scFv-phage) (scFv, V domains shown) VH: VQLVQSGAEVKKPGESLKISCKTSGYTFTHYWIGWVRQMPGKGLEWMGRINPTDSYADYSPSFQGHVIMSVDKSVSTAYLHWNSLKASDTAMYYCARGTALGVWGQGTTVTVSS VL: IQMTQSPSAMSASVGDRVTITCRASQGISNYLAWFQQKPGKVPKRLIYAASSLQSGVPSRFSGSGSGTEFTLTITSLQPEDFATYYCLQHKSYPYTFGQGTKLEIK ?
N
